Source of measurements: paper PMC9458095

- target-under-test: ACE2 (Homo sapiens)
- Construct: purchased Abcam ab273373
- Sequence (Q9BYF1 18-805): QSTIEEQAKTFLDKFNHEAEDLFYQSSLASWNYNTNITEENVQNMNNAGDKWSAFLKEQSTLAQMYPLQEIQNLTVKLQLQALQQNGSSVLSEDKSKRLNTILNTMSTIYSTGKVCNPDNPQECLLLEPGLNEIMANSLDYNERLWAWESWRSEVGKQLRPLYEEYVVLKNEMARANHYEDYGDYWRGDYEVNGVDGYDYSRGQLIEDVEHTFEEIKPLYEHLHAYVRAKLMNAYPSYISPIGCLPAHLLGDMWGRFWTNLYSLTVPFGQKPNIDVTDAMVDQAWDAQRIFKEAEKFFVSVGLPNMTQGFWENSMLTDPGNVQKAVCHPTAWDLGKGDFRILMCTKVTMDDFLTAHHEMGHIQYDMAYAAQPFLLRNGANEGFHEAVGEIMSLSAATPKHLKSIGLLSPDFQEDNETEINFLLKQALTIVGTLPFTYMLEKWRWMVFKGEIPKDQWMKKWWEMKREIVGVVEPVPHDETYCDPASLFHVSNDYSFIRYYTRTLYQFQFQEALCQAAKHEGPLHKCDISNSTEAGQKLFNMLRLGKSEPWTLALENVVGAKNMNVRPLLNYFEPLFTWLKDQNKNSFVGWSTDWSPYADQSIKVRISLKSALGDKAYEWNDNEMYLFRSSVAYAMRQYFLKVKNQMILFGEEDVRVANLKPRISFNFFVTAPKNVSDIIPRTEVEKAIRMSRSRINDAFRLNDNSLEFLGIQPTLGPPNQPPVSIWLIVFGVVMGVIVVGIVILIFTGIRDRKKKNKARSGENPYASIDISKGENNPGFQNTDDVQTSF
- assay-overview: ACE2 inhibitor screening kit (Abcam ab273373), fluorescence enzymatic assay, MCA-based peptide substrate
- Type: biochemical
- conditions: DRC measured three times each, 3-fold titration, 25 µL, enzyme and substrate 1:2; read-out: IC50 of reference inhibitors in optimized conditions
pIC50: −log10 of the molar value.
observation-type: pIC50

Query block: I have this molecule here, CC(C)C[C@H](N[C@@H](Cc1cncn1Cc1cc(Cl)cc(Cl)c1)C(=O)O)C(=O)O [MLN-4760, reference compound] , and I need its recorded pIC50.
Result block: 8.60 to 9.05

---

- target-under-test: ACE2 (Homo sapiens)
- Construct: purchased Abcam ab273373
- assay-overview: ACE2 inhibitor screening kit (Abcam ab273373), fluorescence enzymatic assay, MCA-based peptide substrate
- Format: biochemical
- conditions: 20 µM final concentration, n = 1, 25 µL, enzyme and substrate 1:2; read-out: Inhibition% (primary screen hits)
Known inhibition at 20 µM of a selection of molecules
Respond numerically; units are % and should not be typed.

Cc1ccc2nc(-c3ccc(NC(=O)CCC(=O)O)cc3)sc2c1
74.1
CCC(C(=O)O)[S+]([O-])Cc1csc(-c2ccc3c(c2)OCO3)n1 (stereo not shown)
50.1
Cc1ccc(CCC2CCN(C(=O)CN3CCCC3C(=O)O)CC2)cc1 (stereo not shown)
54

Query block: I have this molecule here, CC(NC(=O)CCCCC(=O)O)c1ccc(-c2ccc(N(C)C)cc2)cc1 (stereo not shown) , and I need its recorded inhibition at 20 µM.
Result block: 38.8

Query block: I have this molecule here, O=C(NC1CN(c2ccccc2)C1=O)c1ncccc1O (stereo not shown) , and I need its recorded inhibition at 20 µM.
Result block: 52.1

Query block: I have this molecule here, O=C(O)CC(NC(=O)c1ccc(-c2ccc(F)cc2)o1)c1ccc(F)cc1 (stereo not shown) , and I need its recorded inhibition at 20 µM.
Result block: 28.9

Query block: I have this molecule here, "O=C(O)CSc1ccc(C(=O)/C=C/c2cnn(-c3ccccc3)c2)cc1F" , and I need its recorded inhibition at 20 µM.
Result block: 29.8

---

- target-under-test: ACE2 (Homo sapiens)
- Construct: purchased Abcam ab273373
- assay-overview: ACE2 inhibitor screening kit (Abcam ab273373), fluorescence enzymatic assay, MCA-based peptide substrate
- Type: biochemical
- conditions: dose-response of confirmed hits, as in Figure 10; read-out: IC50(ACE2)
pIC50: −log10 of the molar value.
The threshold is inclusive: pIC50 of exactly 4 counts as 1 (yes); values below receive 0 (no).

O=C(NC1CN(c2ccccc2)C1=O)c1ncccc1O (centres unmarked)
0 (no)
CC(NC(=O)CCCCC(=O)O)c1ccc(-c2ccc(N(C)C)cc2)cc1 (centres unmarked)
1 (yes)
Cc1ccc(CCC2CCN(C(=O)CN3CCCC3C(=O)O)CC2)cc1 (centres unmarked)
1 (yes)
O=C(O)CSc1ccc(C(=O)/C=C/c2cnn(-c3ccccc3)c2)cc1F
1 (yes)

Query block: Dear colleague, could you confirm whether O=C(O)CC(NC(=O)c1ccc(-c2ccc(F)cc2)o1)c1ccc(F)cc1 (centres unmarked) has pIC50 at or above 4?
Result block: 1 (yes)
